- TEST SYSTEM: CYP3A4 (Homo sapiens, UniProt P08684)
- Sequence (P08684 whole entry): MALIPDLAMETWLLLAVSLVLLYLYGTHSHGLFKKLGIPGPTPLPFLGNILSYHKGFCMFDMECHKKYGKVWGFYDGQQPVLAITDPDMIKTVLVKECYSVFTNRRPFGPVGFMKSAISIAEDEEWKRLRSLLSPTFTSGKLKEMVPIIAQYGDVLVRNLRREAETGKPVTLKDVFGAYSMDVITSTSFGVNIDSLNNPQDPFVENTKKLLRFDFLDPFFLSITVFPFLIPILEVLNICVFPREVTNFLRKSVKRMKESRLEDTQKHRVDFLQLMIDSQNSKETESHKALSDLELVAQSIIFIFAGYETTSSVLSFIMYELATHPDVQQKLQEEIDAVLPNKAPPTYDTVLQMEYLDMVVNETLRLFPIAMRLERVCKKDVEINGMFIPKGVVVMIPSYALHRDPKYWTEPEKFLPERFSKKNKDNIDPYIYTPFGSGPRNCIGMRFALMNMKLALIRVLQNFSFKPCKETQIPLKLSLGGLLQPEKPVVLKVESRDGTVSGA
- PROTOCOL DETAILS: Cytochrome P450 inhibition, Protocol A, cDNA expressed proteins, fluorogenic substrates
- Assay type: in vitro ADME
- ASSAY SETUP: % inhibition at 10 μM; substrate BQ; cDNA expressed protein
ENDPOINT NAME: hCYP3A4_BQ_Pct_Inh (%)
The response must be a number in % with no trailing unit.

Fill in the blank: the reported hCYP3A4_BQ_Pct_Inh of "CC(=O)c1ccc(C2=NCc3c(F)cc(F)cc3-n3cccc32)cc1" is ____.
39

Fill in the blank: the reported hCYP3A4_BQ_Pct_Inh of CC(=O)c1ccc(C2NCc3c(Cl)cccc3-n3cccc32)cc1.Cl (stereo not drawn) is ____.
57

Fill in the blank: the reported hCYP3A4_BQ_Pct_Inh of "CC(=O)c1ccc(C2=NCc3c(ccc(Cl)c3Cl)-n3cccc32)cc1.Cl" is ____.
26

Fill in the blank: the reported hCYP3A4_BQ_Pct_Inh of "CC(=O)c1ccc(C2=NCc3cc(Cl)cc(Cl)c3-n3cccc32)cc1" is ____.
32

Fill in the blank: the reported hCYP3A4_BQ_Pct_Inh of "CC(=O)c1ccc(C2=NCc3c(F)cccc3-n3cccc32)cc1" is ____.
25

Fill in the blank: the reported hCYP3A4_BQ_Pct_Inh of "CC(=O)c1cc(C2=NCc3c(Cl)cc(Cl)cc3-n3cccc32)ccc1F" is ____.
56

Fill in the blank: the reported hCYP3A4_BQ_Pct_Inh of CCc1ccc(C2=NCc3c(Cl)cccc3-n3cccc32)cc1 [drawing 89] is ____.
62

Fill in the blank: the reported hCYP3A4_BQ_Pct_Inh of CCc1ccc(C2NCc3c(Cl)cccc3-n3cccc32)cc1.Cl (stereo not drawn) is ____.
57

Fill in the blank: the reported hCYP3A4_BQ_Pct_Inh of "CC(=O)c1ccc(C2=NCc3c(Cl)ccc(Cl)c3-n3cccc32)cc1" is ____.
29

====

- System: Sporothrix schenkii B62482
- PROTOCOL DETAILS: Antifungal activity in vitro (resazurin susceptibility screen), Inf. A
- Assay type: cell-based
- ASSAY SETUP: Sporothrix, B62482, Sporothrix schenkii B62482; 27 °C, 4 days, resa time 24 hours; highest in-test concentration 64 μM; read-out: Inf. A pIC50 (converted)
Assign log10 IC50 to each entry below.
Answers are given as log10 of IC50 in µM.

Please provide the recorded log10 IC50 for CC(=O)c1ccc(C2=NCc3ccc(Cl)cc3-n3cccc32)cc1 [Compound 18] , tested on Sporothrix schenkii B62482.
0.90

Please provide the recorded log10 IC50 for CC(=O)c1ccc(C2NCc3ccc(Cl)cc3-n3cccc32)cc1 (stereo not shown) [Compound 8] , tested on Sporothrix schenkii B62482.
1.50

Please provide the recorded log10 IC50 for CC(=O)c1ccc(C2NCc3c(Cl)cc(Cl)cc3-n3cccc32)cc1 (stereo not shown) [Compound 11] , tested on Sporothrix schenkii B62482.
1.70

Please provide the recorded log10 IC50 for CC(=O)c1ccc(C2NCc3c(Cl)cccc3-n3cccc32)cc1.Cl (stereo not shown) [Compound 5] , tested on Sporothrix schenkii B62482.
1.60

Please provide the recorded log10 IC50 for CC(=O)c1cccc(C2=NCc3c(Cl)cccc3-n3cccc32)c1 [Compound 16] , tested on Sporothrix schenkii B62482.
1.40

Please provide the recorded log10 IC50 for CC(=O)c1ccc(C2=NCc3c(Cl)cc(Cl)cc3-n3cccc32)cc1 [Compound 22] , tested on Sporothrix schenkii B62482.
0.60

Please provide the recorded log10 IC50 for CC(=O)c1ccc(C2=NCc3cc(Cl)cc(Cl)c3-n3cccc32)cc1 [Compound 26] , tested on Sporothrix schenkii B62482.
0.10

Please provide the recorded log10 IC50 for CC(=O)c1ccc(C2=NCc3c(F)cc(F)cc3-n3cccc32)cc1 [Compound 24] , tested on Sporothrix schenkii B62482.
1.30

Please provide the recorded log10 IC50 for CC(=O)c1ccc(C2=NCc3cccc(Cl)c3-n3cccc32)cc1 [Compound 15] , tested on Sporothrix schenkii B62482.
0.20
